Assign koff to each entry below.
# MEASURED_ON: T1, human latent myostatin (human, UniProt O14793 25-266; O14793 267-375)
# T1 construct: non-covalent complex of two propeptides and the mature homodimer; also called human myostatin latent form
# T1 sequence 1: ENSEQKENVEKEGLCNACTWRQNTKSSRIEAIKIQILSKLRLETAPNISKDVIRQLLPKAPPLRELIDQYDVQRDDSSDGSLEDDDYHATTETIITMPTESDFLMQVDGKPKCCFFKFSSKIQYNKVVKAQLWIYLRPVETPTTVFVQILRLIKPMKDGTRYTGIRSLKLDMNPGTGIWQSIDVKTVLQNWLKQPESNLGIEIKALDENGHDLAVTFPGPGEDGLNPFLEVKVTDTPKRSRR
# T1 sequence 2: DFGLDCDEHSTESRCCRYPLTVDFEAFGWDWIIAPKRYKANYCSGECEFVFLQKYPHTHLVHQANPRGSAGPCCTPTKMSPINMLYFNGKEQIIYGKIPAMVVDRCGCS
# RUN_DESCRIPTION: SPR avidity condition pH7.4 37C; pH 7.4
Response body: numeric value in s⁻¹, unit text excluded.

(Q) Query (binder): MS_M103205H781-SG1/M103202L719-SK1 (antibody, human IgG1, kappa, V domains shown, also called MS1032LO02-SG1) VH: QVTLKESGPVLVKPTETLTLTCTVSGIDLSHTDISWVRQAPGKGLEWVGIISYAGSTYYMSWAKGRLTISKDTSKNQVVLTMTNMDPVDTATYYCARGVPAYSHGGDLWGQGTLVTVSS VL: DIVMTQSPATLSLSPGERATLSCQSSQSVYHNNWLSWFQQKPGQPPKLLIYWASTLAFGVPSRFSGSGSGTDFTLTISSLQPEDAATYYCAGGYGGGLYAFGQGTKVEIKR ; field requested: koff
(A) 0.000249

(Q) Query (binder): MS_M103205H000-SG1/M103202L000-SK1 (antibody, human IgG1, kappa, V domains shown, humanized; also called MS1032LO00-SG1; Ab001) VH: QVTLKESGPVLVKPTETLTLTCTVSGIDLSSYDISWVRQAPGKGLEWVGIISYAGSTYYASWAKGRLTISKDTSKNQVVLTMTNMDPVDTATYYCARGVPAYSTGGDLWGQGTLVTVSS VL: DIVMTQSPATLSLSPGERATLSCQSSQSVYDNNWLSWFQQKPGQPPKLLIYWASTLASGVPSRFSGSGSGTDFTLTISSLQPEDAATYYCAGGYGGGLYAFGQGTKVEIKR ; field requested: koff
(A) 9.52e-05

(Q) Query (binder): MS_M103205H781-SG1/M103202L813-SK1 (antibody, human IgG1, kappa, V domains shown, also called MS1032LO03-SG1) VH: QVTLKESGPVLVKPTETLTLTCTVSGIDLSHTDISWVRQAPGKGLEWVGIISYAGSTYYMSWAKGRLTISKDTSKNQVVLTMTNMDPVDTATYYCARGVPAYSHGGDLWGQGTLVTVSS VL: DIVMTQSPATLSLSPGERATLSCQTSQSVYHDNWLSWFQQKPGQPPKLLIYWASTLASGVPSRFSGSGSGTDFTLTISSLQPEDAATYYCAGGYGGGRYAFGQGTKVEIKR ; field requested: koff
(A) 0.000192

(Q) Query (binder): MS_M103205H707-SG1/M103202L802-SK1 (antibody, human IgG1, kappa, V domains shown, also called MS1032LO04-SG1) VH: QVTLKESGPVLVKPTETLTLTCTVSGIDLSHYDISWVRQAPGKGLEWVGIISYAGSTYYASWAKGRLTISKDTSKNQVVLTMTNMDPVDTATYYCARGVPAYSHGGDLWGQGTLVTVSS VL: DIVMTQSPATLSLSPGERATLSCTSSQSVYHDNWLSWFQQKPGQPPKLLIYWASTLAYGVPSRFSGSGSGTDFTLTISSLQPEDAATYYCAGGYGGGLYAFGQGTKVEIKR ; field requested: koff
(A) 0.000217
